- targetEntity: Dual specificity tyrosine-phosphorylation-regulated kinase 2 (Homo sapiens, UniProt Q92630)
- Sequence (Q92630 whole entry): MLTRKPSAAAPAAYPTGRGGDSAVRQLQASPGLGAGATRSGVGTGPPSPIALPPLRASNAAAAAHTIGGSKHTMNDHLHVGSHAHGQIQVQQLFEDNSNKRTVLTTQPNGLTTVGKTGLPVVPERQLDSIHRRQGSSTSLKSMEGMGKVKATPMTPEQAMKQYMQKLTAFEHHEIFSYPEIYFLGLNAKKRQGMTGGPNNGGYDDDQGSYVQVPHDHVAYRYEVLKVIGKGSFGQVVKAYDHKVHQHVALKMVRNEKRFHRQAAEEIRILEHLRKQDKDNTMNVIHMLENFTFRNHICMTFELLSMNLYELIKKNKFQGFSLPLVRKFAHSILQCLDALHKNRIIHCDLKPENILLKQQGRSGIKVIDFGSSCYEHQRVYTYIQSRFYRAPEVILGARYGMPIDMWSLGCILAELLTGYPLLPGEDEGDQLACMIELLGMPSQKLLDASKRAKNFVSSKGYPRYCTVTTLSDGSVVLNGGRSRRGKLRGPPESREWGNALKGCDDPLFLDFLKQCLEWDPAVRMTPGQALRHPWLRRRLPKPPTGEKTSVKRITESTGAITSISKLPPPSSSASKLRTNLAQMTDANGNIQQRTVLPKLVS
- methodSummary: ATP competitive inhibition of human DYRK2
experimentalReadout: pKi
Remember, pKi is on a log scale: it is -log10 of the molar concentration.

Quick note, pKi for CNCc1ccc(-c2cc(-c3nc(-c4ccc(S(=O)(=O)C(C)C)cc4)cnc3N)on2)cc1 [BERZOSERTIB] landed at 7.59

----------
- targetEntity: Mast/stem cell growth factor receptor Kit (Homo sapiens, UniProt P10721, D816H)
- methodSummary: ATP competitive inhibition of human c-Kit D816H mutant
experimentalReadout: pKi
Remember, pKi is on a log scale: it is -log10 of the molar concentration.

The observed pKi for CNCc1ccc(-c2cc(-c3nc(-c4ccc(S(=O)(=O)C(C)C)cc4)cnc3N)on2)cc1 [BERZOSERTIB] when tested with Mast/stem cell growth factor receptor Kit (Homo sapiens, UniProt P10721, D816H) stands at 7.41

----------
- methodSummary: Half life in Sprague-Dawley rat at 10 mg/kg administered as iv infusion for 3 hrs
- Assay type: ADME, organism-based
- assayContext: in vivo
experimentalReadout: half-life (min)
Please reply with the bare figure in min and do not write the unit itself.

Quick note, half-life for CNCc1ccc(-c2cc(-c3nc(-c4ccc(S(=O)(=O)C(C)C)cc4)cnc3N)on2)cc1 [BERZOSERTIB] landed at 696

----------
Measured pKi, listed per entry.
- targetEntity: DNA-dependent protein kinase catalytic subunit (Homo sapiens)
- Sequence (P78527 whole entry): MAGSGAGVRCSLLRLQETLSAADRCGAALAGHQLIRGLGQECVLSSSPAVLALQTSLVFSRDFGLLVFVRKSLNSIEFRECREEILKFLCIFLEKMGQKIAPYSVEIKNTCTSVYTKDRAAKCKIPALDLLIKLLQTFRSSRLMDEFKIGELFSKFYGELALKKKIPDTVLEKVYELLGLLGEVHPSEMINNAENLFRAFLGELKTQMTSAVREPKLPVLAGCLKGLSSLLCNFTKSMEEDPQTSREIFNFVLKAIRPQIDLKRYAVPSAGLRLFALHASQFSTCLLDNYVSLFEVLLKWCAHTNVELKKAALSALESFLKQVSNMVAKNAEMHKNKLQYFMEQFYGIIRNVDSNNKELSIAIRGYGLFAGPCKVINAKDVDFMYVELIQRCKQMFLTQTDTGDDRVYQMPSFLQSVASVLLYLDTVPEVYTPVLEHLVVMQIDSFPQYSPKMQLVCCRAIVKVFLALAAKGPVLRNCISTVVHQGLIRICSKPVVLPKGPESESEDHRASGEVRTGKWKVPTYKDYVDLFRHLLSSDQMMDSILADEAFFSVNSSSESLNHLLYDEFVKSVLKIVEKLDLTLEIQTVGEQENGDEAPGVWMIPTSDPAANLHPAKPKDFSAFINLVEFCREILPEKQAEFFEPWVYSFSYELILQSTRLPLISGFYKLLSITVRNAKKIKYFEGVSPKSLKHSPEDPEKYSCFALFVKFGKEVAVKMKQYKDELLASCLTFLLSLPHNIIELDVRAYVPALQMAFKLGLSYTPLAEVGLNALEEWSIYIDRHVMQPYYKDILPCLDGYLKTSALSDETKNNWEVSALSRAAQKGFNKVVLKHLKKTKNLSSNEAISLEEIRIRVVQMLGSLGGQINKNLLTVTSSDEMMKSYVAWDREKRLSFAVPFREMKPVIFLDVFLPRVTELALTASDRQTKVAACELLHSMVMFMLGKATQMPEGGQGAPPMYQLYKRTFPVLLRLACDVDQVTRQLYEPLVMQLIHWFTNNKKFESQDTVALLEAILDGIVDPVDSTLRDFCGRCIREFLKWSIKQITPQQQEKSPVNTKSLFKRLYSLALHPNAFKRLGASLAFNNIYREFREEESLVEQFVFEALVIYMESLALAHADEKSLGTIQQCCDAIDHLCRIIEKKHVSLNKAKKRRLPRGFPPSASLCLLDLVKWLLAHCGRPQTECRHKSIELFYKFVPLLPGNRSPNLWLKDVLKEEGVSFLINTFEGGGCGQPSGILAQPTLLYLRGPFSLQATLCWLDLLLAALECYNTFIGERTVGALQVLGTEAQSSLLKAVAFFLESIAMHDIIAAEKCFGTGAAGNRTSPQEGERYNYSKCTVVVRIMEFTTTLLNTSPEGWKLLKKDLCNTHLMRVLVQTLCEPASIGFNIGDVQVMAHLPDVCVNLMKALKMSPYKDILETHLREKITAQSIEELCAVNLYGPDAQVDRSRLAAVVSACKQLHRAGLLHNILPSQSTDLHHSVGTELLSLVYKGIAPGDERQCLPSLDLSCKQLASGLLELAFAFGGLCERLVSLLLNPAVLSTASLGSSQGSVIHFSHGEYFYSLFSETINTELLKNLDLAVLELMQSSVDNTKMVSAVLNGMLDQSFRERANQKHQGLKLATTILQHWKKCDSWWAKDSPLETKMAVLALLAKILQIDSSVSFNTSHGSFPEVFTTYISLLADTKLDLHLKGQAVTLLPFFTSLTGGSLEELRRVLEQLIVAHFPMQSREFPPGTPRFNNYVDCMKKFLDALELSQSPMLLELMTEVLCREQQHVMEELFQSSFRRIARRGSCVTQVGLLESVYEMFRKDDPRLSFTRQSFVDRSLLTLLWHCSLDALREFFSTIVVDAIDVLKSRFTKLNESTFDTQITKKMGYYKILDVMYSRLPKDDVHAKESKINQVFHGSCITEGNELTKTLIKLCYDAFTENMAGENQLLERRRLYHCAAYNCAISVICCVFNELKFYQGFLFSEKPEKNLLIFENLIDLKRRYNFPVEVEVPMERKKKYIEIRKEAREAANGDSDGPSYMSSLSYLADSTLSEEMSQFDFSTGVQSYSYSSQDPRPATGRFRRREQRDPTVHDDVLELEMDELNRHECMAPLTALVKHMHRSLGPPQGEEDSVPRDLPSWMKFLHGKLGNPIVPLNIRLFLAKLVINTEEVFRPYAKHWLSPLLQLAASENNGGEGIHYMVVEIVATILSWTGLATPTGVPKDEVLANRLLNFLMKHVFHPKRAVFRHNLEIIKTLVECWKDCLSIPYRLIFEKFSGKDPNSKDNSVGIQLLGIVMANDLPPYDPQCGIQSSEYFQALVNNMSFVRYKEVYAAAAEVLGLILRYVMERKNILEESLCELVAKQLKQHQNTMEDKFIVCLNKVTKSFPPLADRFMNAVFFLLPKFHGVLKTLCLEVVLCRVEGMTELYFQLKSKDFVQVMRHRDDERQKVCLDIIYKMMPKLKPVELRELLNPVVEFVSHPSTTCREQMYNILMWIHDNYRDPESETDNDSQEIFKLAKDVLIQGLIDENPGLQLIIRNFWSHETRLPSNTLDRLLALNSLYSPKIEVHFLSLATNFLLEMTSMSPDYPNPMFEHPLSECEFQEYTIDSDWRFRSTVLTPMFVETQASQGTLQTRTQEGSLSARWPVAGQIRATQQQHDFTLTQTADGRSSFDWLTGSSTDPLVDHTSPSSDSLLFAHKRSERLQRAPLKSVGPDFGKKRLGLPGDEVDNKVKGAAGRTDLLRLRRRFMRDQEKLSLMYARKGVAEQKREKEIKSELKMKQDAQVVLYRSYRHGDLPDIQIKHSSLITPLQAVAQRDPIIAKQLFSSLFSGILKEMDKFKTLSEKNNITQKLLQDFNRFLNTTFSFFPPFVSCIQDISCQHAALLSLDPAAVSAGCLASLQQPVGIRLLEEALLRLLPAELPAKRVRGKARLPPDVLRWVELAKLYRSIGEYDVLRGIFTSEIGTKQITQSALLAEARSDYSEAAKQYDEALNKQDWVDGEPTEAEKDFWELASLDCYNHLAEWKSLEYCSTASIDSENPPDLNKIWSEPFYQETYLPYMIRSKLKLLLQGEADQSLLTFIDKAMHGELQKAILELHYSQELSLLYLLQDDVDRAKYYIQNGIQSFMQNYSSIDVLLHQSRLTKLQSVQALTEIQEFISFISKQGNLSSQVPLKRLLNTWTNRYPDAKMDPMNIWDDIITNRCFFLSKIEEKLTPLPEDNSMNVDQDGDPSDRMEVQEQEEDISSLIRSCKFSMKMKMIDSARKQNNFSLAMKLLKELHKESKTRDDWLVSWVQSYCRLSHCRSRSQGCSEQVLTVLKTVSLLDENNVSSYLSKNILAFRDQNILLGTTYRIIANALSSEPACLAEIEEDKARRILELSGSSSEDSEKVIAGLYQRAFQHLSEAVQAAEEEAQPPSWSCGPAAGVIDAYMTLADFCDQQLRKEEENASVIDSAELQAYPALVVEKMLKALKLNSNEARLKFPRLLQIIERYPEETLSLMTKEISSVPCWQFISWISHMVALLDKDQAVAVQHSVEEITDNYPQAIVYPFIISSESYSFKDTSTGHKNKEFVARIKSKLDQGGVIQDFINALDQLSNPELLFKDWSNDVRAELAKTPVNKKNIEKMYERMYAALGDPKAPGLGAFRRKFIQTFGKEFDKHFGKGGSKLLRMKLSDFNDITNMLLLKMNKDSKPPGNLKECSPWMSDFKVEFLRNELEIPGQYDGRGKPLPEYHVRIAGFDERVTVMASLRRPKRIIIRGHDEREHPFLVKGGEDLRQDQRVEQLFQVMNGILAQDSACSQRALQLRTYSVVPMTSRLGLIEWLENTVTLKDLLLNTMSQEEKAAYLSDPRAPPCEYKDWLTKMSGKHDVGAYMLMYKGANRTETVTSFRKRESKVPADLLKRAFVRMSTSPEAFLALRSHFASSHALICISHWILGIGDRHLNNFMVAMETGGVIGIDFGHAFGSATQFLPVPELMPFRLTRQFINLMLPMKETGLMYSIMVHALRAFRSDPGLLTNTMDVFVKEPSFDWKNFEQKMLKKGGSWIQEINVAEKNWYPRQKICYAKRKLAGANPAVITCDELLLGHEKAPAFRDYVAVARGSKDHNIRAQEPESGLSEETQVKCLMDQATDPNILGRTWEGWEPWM
- methodSummary: Inhibition of purified recombinant human full-length DNA-PK using EPPLSQEAFADLWKKK peptide as substrate measured after 2 hrs in presence of [gamma-33P] ATP by microbeta liquid scintillation counting analysis
Remember, pKi is on a log scale: it is -log10 of the molar concentration.

* CC(C)S(=O)(=O)c1ccc(-c2cnc(N)c(-c3nnc(-c4ccccc4)o3)n2)cc1 | 5.05
* CCNCc1ccc(-c2cc(-c3nc(-c4ccc(S(=O)(=O)C(C)C)cc4)cnc3N)on2)cc1 | 5.47
* CC(C)S(=O)(=O)c1ccc(-c2cnc(N)c(C(=O)Nc3ccccc3)n2)cc1 | 5.55

Please examine the following record next.
Quick note, pKi for "CC(C)S(=O)(=O)c1ccc(-c2cnc(N)c(-c3cc(-c4ccc([C@H](C)N)cc4)no3)n2)cc1" landed at 6.11

----------
- targetEntity: Serine/threonine-protein kinase ATR (Homo sapiens)
- methodSummary: Inhibition of recombinant human full-length N-terminal Flag epitope-tagged ATR expressed in HEK293T cells using ASELPASQPQPFSAKKK peptide as substrate measured after 24 hrs in presence of [gamma-33P] ATP by microbeta liquid scintillation counting analysis
pKi: −log10 of the molar value.
Kindly note that classification relies on pKi with these boundaries: band A = under 8, band B = from 8 up to 9, band C = 9 and over

Examples from the recorded data:
• CC(C)S(=O)(=O)c1ccc(-c2cnc(N)c(-c3cc(-c4ccc(CN)cc4)no3)n2)cc1 = band C
• CC(C)S(=O)(=O)c1ccc(-c2cnc(N)c(-c3cc(-c4ccc([C@@H](C)N)cc4)no3)n2)cc1 = band C
• CC(C)S(=O)(=O)c1ccc(-c2cnc(N)c(C(=O)Nc3ccccc3)n2)cc1 = band B

Then there is this compound:
[ask] Please let me know in which category the item "CC(C)S(=O)(=O)c1ccc(-c2cnc(N)c(-c3cc(-c4ccccc4)on3)n2)cc1" belongs.
[reply] band B

----------
- targetEntity: DNA-dependent protein kinase catalytic subunit (Homo sapiens)
- methodSummary: Inhibition of purified recombinant human full-length DNA-PK using EPPLSQEAFADLWKKK peptide as substrate measured after 2 hrs in presence of [gamma-33P] ATP by microbeta liquid scintillation counting analysis
experimentalReadout: Ki

* CC(C)S(=O)(=O)c1ccc(-c2cnc(N)c(-c3cnc(-c4ccccc4)o3)n2)cc1 | > 4 µM
* CC(C)S(=O)(=O)c1ccc(-c2cnc(N)c(C3CC(c4ccccc4)=NO3)n2)cc1 (racemic) | > 4 µM
* CNCc1ccc(-c2cc(-c3nc(-c4ccc(S(=O)(=O)C(C)C)cc4)cnc3N)on2)cc1Cl | > 4 µM
* CC(C)S(=O)(=O)c1ccc(-c2cnc(N)c(-c3cc(-c4ccc(CN)cc4)no3)n2)cc1 | > 4 µM
* CC(C)S(=O)(=O)c1ccc(-c2cnc(N)c(-c3cc(-c4ccccc4)on3)n2)cc1 | > 4 µM
* CC(C)S(=O)(=O)c1ccc(-c2cnc(N)c(-c3cc(-c4ccccc4)no3)n2)cc1 | > 4 µM

The observed Ki for "CC(C)S(=O)(=O)c1ccc(-c2cnc(N)c(-c3cc(-c4ccc([C@@H](C)N)cc4)no3)n2)cc1" when tested with DNA-dependent protein kinase catalytic subunit (Homo sapiens) stands at 1.7 µM

The observed Ki for "CNCc1ccc(-c2cc(-c3nc(-c4ccc(S(=O)(=O)C(C)C)cc4)cnc3N)on2)c(Cl)c1" when tested with DNA-dependent protein kinase catalytic subunit (Homo sapiens) stands at 2.61 µM

The observed Ki for "CC(C)S(=O)(=O)c1ccc(-c2cnc(N)c(-c3nnc(-c4ccccc4)s3)n2)cc1" when tested with DNA-dependent protein kinase catalytic subunit (Homo sapiens) stands at > 4 µM

The observed Ki for "CC(C)S(=O)(=O)c1ccc(-c2cnc(N)c(-c3noc(-c4ccccc4)n3)n2)cc1" when tested with DNA-dependent protein kinase catalytic subunit (Homo sapiens) stands at 4 µM

----------
- targetEntity: Serine-protein kinase ATM (Homo sapiens, UniProt Q13315)
- methodSummary: Inhibition of full-length ATM (unknown origin) using DPSVEPPLSQETFSDKKK peptide as substrate measured after 24 hrs in presence of [gamma-33P] ATP by microbeta liquid scintillation counting analysis
experimentalReadout: log10(Ki) (log10 of the value in nM)
Give log10 of Ki, with Ki taken in nM.

* CC(C)S(=O)(=O)c1ccc(-c2cnc(N)c(-c3cc(-c4ccccc4)on3)n2)cc1 | 3.11
* CNCc1ccc(-c2cc(-c3nc(-c4ccc(S(=O)(=O)C(C)C)cc4)cnc3N)on2)cc1Cl | 2.28
* CC(C)S(=O)(=O)c1ccc(-c2cnc(N)c(-c3cc(-c4ccc(CNC5CCOCC5)cc4)no3)n2)cc1 | 2.28
* CC(C)S(=O)(=O)c1ccc(-c2cnc(N)c(-c3noc(-c4ccccc4)n3)n2)cc1 | 2.60
* CCNCc1ccc(-c2cc(-c3nc(-c4ccc(S(=O)(=O)C(C)C)cc4)cnc3N)on2)cc1 | 1.67
* CNCc1ccc(-c2cc(-c3nc(-c4ccc(S(=O)(=O)C(C)C)cc4)cnc3N)on2)cc1 | 1.64

Quick note, log10(Ki) for "CC(C)S(=O)(=O)c1ccc(-c2cnc(N)c(-c3cc(-c4ccc([C@H](C)N)cc4)no3)n2)cc1" landed at 1.91

----------
- targetEntity: UniProtKB Q12809
experimentalReadout: pIC50
Remember, pIC50 is on a log scale: it is -log10 of the molar concentration.

Quick note, pIC50 for CNCc1ccc(-c2cc(-c3nc(-c4ccc(S(=O)(=O)C(C)C)cc4)cnc3N)on2)cc1 [BERZOSERTIB] landed at 5.52

----------
- methodSummary: Volume of distribution at steady state in Sprague-Dawley rat at 10 mg/kg administered as iv infusion for 3 hrs
- Type: ADME, organism-based
- assayContext: in vivo, read-out: Vdss
experimentalReadout: Vd (L/kg)
Please reply with the bare figure in L/kg and do not write the unit itself.

Quick note, Vd for "CNCc1ccc(-c2cc(-c3nc(-c4ccc(S(=O)(=O)C(C)C)cc4)cnc3N)on2)cc1" landed at 21

----------
- targetEntity: Cytochrome P450 2C9 (Homo sapiens)
- methodSummary: Inhibition of CYP2C9 (unknown origin)
- Type: ADME
pIC50: −log10 of the molar value.
experimentalReadout: pIC50

The observed pIC50 for "CNCc1ccc(-c2cc(-c3nc(-c4ccc(S(=O)(=O)C(C)C)cc4)cnc3N)on2)cc1" when tested with Cytochrome P450 2C9 (Homo sapiens) stands at < 4.52

----------
Measured log10 solubility, listed per entry.
- methodSummary: Aqueous solubility of the compound in PBS incubated overnight by UPLC-MS analysis
- Assay type: physicochemical
Give log10 of solubility, with solubility taken in µM.

• CNCc1ccc(-c2cc(-c3nc(-c4ccc(S(=O)(=O)C(C)C)cc4)cnc3N)on2)cc1Cl = 0.13
• CCNCc1ccc(-c2cc(-c3nc(-c4ccc(S(=O)(=O)C(C)C)cc4)cnc3N)on2)cc1 = 1.86
• CNCc1ccc(-c2cc(-c3nc(-c4ccc(S(=O)(=O)C(C)C)cc4)cnc3N)on2)cc1 = 1.72
• CC(C)S(=O)(=O)c1ccc(-c2cnc(N)c(-c3cc(-c4ccc(CNC5CCOCC5)cc4)no3)n2)cc1 = -0.10
• CC(C)S(=O)(=O)c1ccc(-c2cnc(N)c(-c3cc(-c4ccc([C@H](C)N)cc4)no3)n2)cc1 = 1.45
• CC(C)S(=O)(=O)c1ccc(-c2cnc(N)c(-c3cc(-c4ccc([C@@H](C)N)cc4)no3)n2)cc1 = 1.65
• CNCc1ccc(-c2cc(-c3nc(-c4ccc(S(=O)(=O)C(C)C)cc4)cnc3N)on2)c(Cl)c1 = 0.64

Quick note, log10 solubility for "CC(C)S(=O)(=O)c1ccc(-c2cnc(N)c(-c3cc(-c4ccc(CN)cc4)no3)n2)cc1" landed at 1.10
